The measurements presented in this section are drawn from ChEMBL document CHEMBL5500384.

This section presents molecules with their documented LD50 at 336 h values.
# ASSAY OVERVIEW: Acute toxicity in po dosed Albino mouse assessed as mortality after 14 days
# Type: organism-based
# RUN PARAMETERS: in vivo, time 14 day
Use mg/kg as the unit, but write only the number.

INSERT INTO results (molecule, result_unit, result_value) VALUES
  ('NC1=C(Cl)C(=O)c2ccccc2C1=O', 'mg/kg', 50),
  ('COc1ccc(C2C(Cl)C(=O)N2C2=C(Cl)C(=O)c3ccccc3C2=O)cc1 (stereo unspecified)', 'mg/kg', 50),
  ('CCOc1cc(C2C(Cl)C(=O)N2C2=C(Cl)C(=O)c3ccccc3C2=O)ccc1O (stereo unspecified)', 'mg/kg', 300),
  ('CN(C)c1ccc(C2C(Cl)C(=O)N2C2=C(Cl)C(=O)c3ccccc3C2=O)cc1 (stereo unspecified)', 'mg/kg', 300);

Q) Which LD50 at 336 h value is on record for O=C1C(Cl)=C(N2C(=O)C(Cl)C2c2ccc([N+](=O)[O-])cc2)C(=O)c2ccccc21 (stereo unspecified) ?
A) 50

Q) Which LD50 at 336 h value is on record for O=C1C(Cl)=C(N2C(=O)C(Cl)C2c2ccc(Cl)cc2)C(=O)c2ccccc21 (stereo unspecified) ?
A) 50
